Reference source: patent US20260250381A1

targetSystem: T1, human TREM2 (human) (UniProt Q9NZC2)
T1 sequence (looked up): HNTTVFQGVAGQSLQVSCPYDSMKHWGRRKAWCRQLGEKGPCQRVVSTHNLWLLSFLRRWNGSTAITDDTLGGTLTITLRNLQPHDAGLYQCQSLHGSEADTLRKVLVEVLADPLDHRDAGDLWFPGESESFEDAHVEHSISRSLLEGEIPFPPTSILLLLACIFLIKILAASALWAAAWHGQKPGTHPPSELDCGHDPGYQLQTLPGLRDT
assayExplanation: 2nd screen, 10 nM Ab
propertyMeasured: Binding Signal (fold over 6E7 parental antibody) (fold)
Write the number in fold without appending the unit.

6E7 variant V36 (antibody, V domains shown) VH: EVQLVQSGAEVKKPGESLKISCKGSGYSFTSYWLAWVRQMPGKGLEWMGIIYPGDSDTRYSPSFQGQVTISADKSISTAYLQWSSLKASDTAMYFCARSRTFYYDSSDYFDYWGQGTLVTVSS VL: DIQMTQSPSSVSASVGDRVTITCRASQGISSWLAWYQQKPGKAPKLLIYAASSRQNGVPSRFSGSGSGTDFTLTISSLQPEDFATYFCQQADSYPRTFGQGTKLEIK
3.44

Sample 6E7 variant V28 (antibody, V domains shown) VH: EVQLVQSGAEVKKPGESLKISCKGSGYSFQSYWIAWVRQMPGKGLEWMGTIYPGDSDTRYSPSFQGQVTISADKSISTAYLQWSSLKASDTAMYFCARQRTFFYDSSDYFDYWGQGTLVTVSS VL: DIQMTQSPSSVSASVGDRVTITCRASQGISSWLAWYQQKPGKAPKLLIYAASSLQSGVPSRFSGSGSGTDFTLTISSLQPEDFATYFCQQADSLPRTFGQGTKLEIK — what was its Binding Signal (fold over 6E7 parental antibody)? 3.61

// lookup Binding Signal (fold over 6E7 parental antibody) for 6E7 variant V24 (antibody, V domains shown) VH: EVQLVQSGAEVKKPGESLKISCKGSGYSFTSYWIAWVRQMPGKGLEWMGIIYPGDSDVRYSPSFQGQVTISADKSISTAYLQWSSLKASDTAMYFCARSRTFYYDSSDYFDYWGQGTLVTVSS VL: DIQMTQSPSSVSASVGDRVTITCRASQGISSWLAWYQQKPGKAPKLLIYAASSLQKGVPSRFSGSGSGTDFTLTISSLQPEDFATYFCQQADSFPHTFGQGTKLEIK 2.9
